Measured values drawn from ChEMBL document CHEMBL5390287 for this set.

TARGET: UniProt:P35367
Sequence (P35367 whole entry): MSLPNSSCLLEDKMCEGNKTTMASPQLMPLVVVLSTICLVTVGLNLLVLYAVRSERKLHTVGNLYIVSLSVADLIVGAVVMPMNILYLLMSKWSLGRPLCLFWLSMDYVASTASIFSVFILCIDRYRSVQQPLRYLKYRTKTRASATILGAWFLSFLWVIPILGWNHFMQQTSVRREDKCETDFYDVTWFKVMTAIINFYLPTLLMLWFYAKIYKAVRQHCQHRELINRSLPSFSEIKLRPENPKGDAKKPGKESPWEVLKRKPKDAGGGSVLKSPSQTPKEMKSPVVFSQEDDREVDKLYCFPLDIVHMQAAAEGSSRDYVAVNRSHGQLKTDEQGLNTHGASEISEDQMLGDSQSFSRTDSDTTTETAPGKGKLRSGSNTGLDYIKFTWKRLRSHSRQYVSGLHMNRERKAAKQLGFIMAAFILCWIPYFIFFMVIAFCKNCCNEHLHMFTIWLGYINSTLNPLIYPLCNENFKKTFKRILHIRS
EXPERIMENTAL PROTOCOL: Displacement of [3H]mepyramine from SP-FLAG tagged human histamine H1 receptor expressed in HEK293T cells assessed as inhibition constant incubated for 60 min by scintillation counter analysis
Assay type: cell-based
pKi: −log10 of the molar value.
METRIC NAME: pKi

Challenge: Dear colleague, please send me the reported pKi for `CCC(=O)NC1CCN(Cc2ccc(OCCCN3CCCCC3)cc2)CC1` when you can.
Response given: < 4.00

* * *

TARGET: UniProt Q9Y5N1
EXPERIMENTAL PROTOCOL: Binding affinity to SP-FLAG tagged human histamine H3 receptor expressed in HEK293T cells assessed as kinetic dissociation constant incubated for 30 mins by scintillation counting analysis
Format: cell-based
METRIC NAME: Kd (nM)
Record the value in nM, omitting the unit from your answer.

Challenge: Provide Kd value for the following compound: `[3H]C([3H])([3H])C([3H])([3H])C(=O)NC1CCN(Cc2ccc(OCCCN3CCCCC3)cc2)CC1`
Response given: 0.324

* * *

TARGET: Histamine H3 receptor (Homo sapiens, UniProt Q9Y5N1)
Sequence (Q9Y5N1 whole entry): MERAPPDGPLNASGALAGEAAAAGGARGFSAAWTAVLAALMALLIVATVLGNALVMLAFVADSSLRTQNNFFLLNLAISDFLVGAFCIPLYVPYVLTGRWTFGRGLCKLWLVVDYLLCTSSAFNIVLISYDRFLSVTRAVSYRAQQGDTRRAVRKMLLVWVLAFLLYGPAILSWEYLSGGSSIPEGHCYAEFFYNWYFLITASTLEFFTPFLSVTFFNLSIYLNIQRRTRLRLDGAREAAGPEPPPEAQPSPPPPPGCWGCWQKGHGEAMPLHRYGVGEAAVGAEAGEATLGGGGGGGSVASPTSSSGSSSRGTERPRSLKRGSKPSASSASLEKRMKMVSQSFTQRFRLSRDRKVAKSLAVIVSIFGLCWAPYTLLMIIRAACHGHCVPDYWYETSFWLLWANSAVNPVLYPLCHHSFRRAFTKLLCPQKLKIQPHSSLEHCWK
EXPERIMENTAL PROTOCOL: Binding affinity to SP-FLAG tagged human histamine H3 receptor expressed in HEK293T cells using sodium containing Leibovitz's L-15 medium incubated for 60 min by scintillation counter analysis
Assay type: cell-based
Readings of Ki for the listed compounds
All answers are understood in µM, so give the number only.

Challenge: Write down the reported Ki (system: Histamine H3 receptor (Homo sapiens, UniProt Q9Y5N1)) of `CCC(=O)NC1CCN(Cc2ccc(OCCCN3CCCCC3)cc2)CC1`
Response given: 0.000288

Challenge: Write Ki of `N=C(N)SCCc1cnc[nH]1` ; system used: Histamine H3 receptor (Homo sapiens, UniProt Q9Y5N1)
Response given: 0.0282

* * *

Quick list: Ki per entry.
TARGET: Histamine H3 receptor (Homo sapiens, UniProt Q9Y5N1)
EXPERIMENTAL PROTOCOL: Displacement of [3H]UR-MN259 from SP-FLAG tagged human histamine H3 receptor expressed in HEK293T cells assessed as inhibition constant incubated for 60 min by scintillation counter analysis
Assay type: cell-based
Write down the numeric answer in nM and omit the unit.

Challenge: Give the measured Ki for N=C(N)SCCc1cnc[nH]1 [IMETIT]
Response given: 5.75

Challenge: For `CCC(=O)NC1CCN(Cc2ccc(OCCCN3CCCCC3)cc2)CC1` , write its Ki.
Response given: 0.282

* * *

TARGET: Histamine H3 receptor (Homo sapiens)
EXPERIMENTAL PROTOCOL: Binding affinity to SP-FLAG tagged human histamine H3 receptor expressed in HEK293T cells using sodium containing Leibovitz's L-15 medium incubated for 60 min by scintillation counter analysis
Type: cell-based
METRIC NAME: Kd
Answer shape: numeric part, then the unit.

Challenge: Please supply the value of reported Kd for the item `[3H]C([3H])([3H])C([3H])([3H])C(=O)NC1CCN(Cc2ccc(OCCCN3CCCCC3)cc2)CC1`
Response given: 0.513 nM

* * *

TARGET: UniProt:P25021
Sequence (P25021 whole entry): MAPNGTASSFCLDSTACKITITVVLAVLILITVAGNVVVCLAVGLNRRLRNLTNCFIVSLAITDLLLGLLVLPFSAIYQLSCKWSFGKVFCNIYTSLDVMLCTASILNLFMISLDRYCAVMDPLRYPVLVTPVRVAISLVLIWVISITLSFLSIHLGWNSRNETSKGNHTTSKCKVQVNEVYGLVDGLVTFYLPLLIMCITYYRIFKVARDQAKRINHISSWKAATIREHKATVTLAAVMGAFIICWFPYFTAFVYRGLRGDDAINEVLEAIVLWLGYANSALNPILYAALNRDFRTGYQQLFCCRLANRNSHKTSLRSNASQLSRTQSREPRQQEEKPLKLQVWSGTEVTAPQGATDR
pKi: −log10 of the molar value.
METRIC NAME: pKi

Challenge: Given the molecule `CCC(=O)NC1CCN(Cc2ccc(OCCCN3CCCCC3)cc2)CC1` , write its reported pKi.
Response given: < 4.00
